dTm listing for selected compounds.
Target: ~100 representative kinases (Homo sapiens)
Construct: Recombinant protein kinase domains with a concentration of 2 μM
Sequence (O94768 1-372): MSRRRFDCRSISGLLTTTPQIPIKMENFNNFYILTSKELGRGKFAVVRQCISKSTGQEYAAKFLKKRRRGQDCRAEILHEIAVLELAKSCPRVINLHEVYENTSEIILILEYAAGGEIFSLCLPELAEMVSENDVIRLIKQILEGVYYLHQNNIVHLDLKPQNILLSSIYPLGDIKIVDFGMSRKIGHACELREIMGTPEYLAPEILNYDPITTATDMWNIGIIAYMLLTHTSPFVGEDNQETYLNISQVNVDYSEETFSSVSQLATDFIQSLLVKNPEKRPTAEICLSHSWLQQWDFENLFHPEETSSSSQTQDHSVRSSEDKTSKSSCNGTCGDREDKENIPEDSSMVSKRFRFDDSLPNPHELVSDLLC
Assay: DSF 100 kinase selectivity screen;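 also: compound tested at 20 µM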
Format: binding
Details: Protein STK17B; DSF; average of three replicates

# COMPOUND, SYSTEM_NAME, UNIT_ANNOTATION, dTm
rows = [
    ("CCSc1nc(NC)c2c(-c3cccc(NC(=O)Nc4cc(C(C)(C)C)nn4-c4ccc(C)cc4)c3)c[nH]c2n1 [Compound 32]", "~100 representative kinases (Homo sapiens)", "K", 6.20),
    ("Cc1cc(NC(=O)C2(C(=O)Nc3ccc(F)cc3)CC2)cc(-c2c[nH]c3ncnc(N4CCOCC4)c23)c1 [Compound 6]", "~100 representative kinases (Homo sapiens)", "K", 0.00),
    ("O=C(Nc1cccc(-c2c[nH]c3ncnc(N4CCOCC4)c23)c1)C1(C(=O)Nc2cccc3c2CCC3)CC1 [Compound 11]", "~100 representative kinases (Homo sapiens)", "K", 0.00),
    ("COc1ccc(NC(=O)C2(C(=O)Nc3cccc(-c4c[nH]c5ncnc(N6CCOCC6)c45)c3)CC2)cc1 [Compound 16]", "~100 representative kinases (Homo sapiens)", "K", 2.09),
    ("O=C(Nc1cc(F)cc(Br)c1)C1(C(=O)Nc2cccc(-c3c[nH]c4ncnc(N5CCOCC5)c34)c2)CC1 [Compound 27]", "~100 representative kinases (Homo sapiens)", "K", 0.00),
    ("O=C(Nc1cccc(-c2c[nH]c3ncnc(N4CCOCC4)c23)c1)C1(C(=O)Nc2ccc(F)c(Cl)c2)CC1 [Compound 18]", "~100 representative kinases (Homo sapiens)", "K", 9.48),
    ("O=C(Nc1ccc(F)cc1)C1(C(=O)Nc2cccc(-c3c[nH]c4ncnc(N5CCOCC5)c34)c2)CC1 [Compound 2]", "~100 representative kinases (Homo sapiens)", "K", 6.81),
]

###

Biological target: ~100 representative kinases (Homo sapiens)
Construct: Recombinant protein kinase domains with a concentration of 2 μM
Experiment: DSF 100 kinase selectivity screen;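 also: compound tested at 20 µM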
Assay type: binding
Conditions: protein FGFR2; average of three replicates
# Lookup of reported dTm keyed by entry

# COMPOUND, SYSTEM_NAME, dTm / K
data = [
    ("CCNc1nc(Nc2cc(F)c(C(=O)N3CCOCC3)cc2OC)ncc1C(F)(F)F", "~100 representative kinases (Homo sapiens)", 0.49),
    ("COc1ccc(NC(=O)C2(C(=O)Nc3cccc(-c4c[nH]c5ncnc(N6CCOCC6)c45)c3)CC2)cc1", "~100 representative kinases (Homo sapiens)", 1.54),
    ("Cc1ccc(C(=O)Nc2ccc(CN3CCN(C)CC3)c(C(F)(F)F)c2)cc1C#Cc1cnc2cccnn12 [Ponatinib, reference compound]", "~100 representative kinases (Homo sapiens)", 12.49),
    ("O=C(Nc1cccc(-c2c[nH]c3ncnc(N4CCOCC4)c23)c1)C1(C(=O)Nc2ccc(F)c(Cl)c2)CC1", "~100 representative kinases (Homo sapiens)", 4.02),
]

The reported numbers originate from paper PMC12136037.
